System: SKBR3 cells
protocol_notes: Cellular growth inhibition (sulforhodamine B)
Type: cell-based, Human
applied_conditions: Homo sapiens, SK-BR-3; Table 3; 24 hour exposure entirely oxic; read-out: Cellular Growth Inhibition IC50 SKBR3 Oxic
assay_readout: IC50 (nM)

Worked cases, answers included:
>>> data_value("COc1cc2ncnc(Nc3ccc(F)c(Cl)c3)c2cc1NC(=O)/C=C/CN(C)C [Compound 14]")
28
>>> data_value("CN(C)C/C=C/C(=O)Nc1ccc2ncnc(Nc3cccc(Br)c3)c2c1 [Compound 11, reference compound]")
81
>>> data_value("Cn1ncc([N+](=O)[O-])c1C[N+](C)(C)C/C=C/C(=O)Nc1ccc2ncnc(Nc3cccc(Br)c3)c2c1 [Compound 22]")
11000
>>> data_value("CN(C)CCCC(=O)Nc1ccc2ncnc(Nc3cccc(Br)c3)c2c1 [Compound 16]")
3190
>>> data_value("O=C(/C=C/CN1CCCCC1)Nc1ccc2ncnc(Nc3cccc(Br)c3)c2c1 [Compound 12, reference compound]")
44
>>> data_value("Cn1cnc([N+](=O)[O-])c1C[N+](C)(C)CCCC(=O)Nc1ccc2ncnc(Nc3cccc(Br)c3)c2c1 [Compound 27]")
507000
>>> data_value("C[N+](C)(C/C=C/C(=O)Nc1ccc2ncnc(Nc3cccc(Br)c3)c2c1)Cc1ccccc1[N+](=O)[O-] [Compound 18]")
3750
>>> data_value("O=C(/C=C/CN1CCOCC1)Nc1ccc2ncnc(Nc3cccc(Br)c3)c2c1 [Compound 13, reference compound]")
1040
>>> data_value("Cn1cc([N+](=O)[O-])nc1C[N+](C)(C)C/C=C/C(=O)Nc1ccc2ncnc(Nc3cccc(Br)c3)c2c1 [Compound 21]")
26900

A. Cn1cnc([N+](=O)[O-])c1C[N+]1(C/C=C/C(=O)Nc2ccc3ncnc(Nc4cccc(Br)c4)c3c2)CCCCC1.[Br-] [Compound 23]
B. C[N+](C)(C/C=C/C(=O)Nc1ccc2ncnc(Nc3cccc(Br)c3)c2c1)Cc1ccc([N+](=O)[O-])cc1 [Compound 17]
## Input When the recorded IC50 values are compared, which is smaller: that of A or that of B ? Returns: label corresponding to the selected item.
## Output B
(B: 1520 nM, A: 2470 nM)
